B1: KRT18 (parent)
chain: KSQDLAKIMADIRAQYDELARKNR

variants of: B1; test: protein stability index of a GFP-peptide fusion (GPS, HEK-293T) (PSI 1-6); higher = more stable; details: c terminus: a fixed tail appended;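 also: lentivirally expressed fusions sorted by FACS into six bins by GFP to DsRed ratio, PSI derived from sequencing read proportions per bin multiplied by bin number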
QUANTITY MEASURED: protein stability index
One number for each entry.

[
  {
    "SEQUENCE CHANGE": "D4Q",
    "protein stability index": 2.42
  },
  {
    "SEQUENCE CHANGE": "A6D",
    "protein stability index": 2.8
  },
  {
    "SEQUENCE CHANGE": "K7Y",
    "protein stability index": 1.86
  },
  {
    "SEQUENCE CHANGE": "A10L",
    "protein stability index": 2.68
  },
  {
    "SEQUENCE CHANGE": "R24E",
    "protein stability index": 3.17
  },
  {
    "SEQUENCE CHANGE": "N23W",
    "protein stability index": 2.33
  },
  {
    "SEQUENCE CHANGE": "Q15P",
    "protein stability index": 3.84
  },
  {
    "SEQUENCE CHANGE": "R21S",
    "protein stability index": 2.95
  }
]

// input: 5 variants below; output: protein stability index for each
1. I12M
2. Q3G
3. K7P
4. R24G
5. Q3D

OUT:
4.04
2.72
3.88
3.57
3.09

The values you see were collected from the supplement of paper PMC10567573.
